FYI, the data here is from ChEMBL document CHEMBL4152362.

# assayProtocol: AUC (0 to 24 hrs) in F344/DuCrlCrlj rat at 300 mg/kg, po via gavage measured on day 28 post dose
# Assay type: ADME, organism-based
# Set-up: time < 24 hr, dose 300 mg/kg, route oral
# measurementSetup: in vivo

- compound: "Cc1cnc(Oc2ccc3nc(COc4cccc(C(=O)O)c4)n(C)c3c2)c(C)c1.Cl"
  AUC at 24 h, µg·h/mL: 933

* * *

# testedOn: Peroxisome proliferator-activated receptor alpha (Homo sapiens)
# assayProtocol: Agonist activity at recombinant human GAL4-DBD fused PPARalpha LBD expressed in COS7 cells at 10 uM after 24 hrs by luciferase reporter gene assay relative to 2-(4-tert-Butylphenoxy)-3-[4-[2-[(4-pyridin-2-ylbenzoyl)amino]ethoxy] phenyl]propionic acid
# Format: cell-based
One threshold, 8%, splits the recorded Emax values: lower ones are True, equal or higher ones are False.

- compound: "Cc1ccc(Oc2cc3c(cn2)nc(COc2cccc(C(=O)O)c2)n3C)cc1"
  testedOn: "Peroxisome proliferator-activated receptor alpha (Homo sapiens)"
  categoryLabel: "True"
- compound: "Cn1c(COc2cccc(C(=O)O)c2)nc2ccc(Oc3ccc(Cl)c(F)c3)nc21"
  testedOn: "Peroxisome proliferator-activated receptor alpha (Homo sapiens)"
  categoryLabel: "False"
- compound: "Cc1cccc(Oc2ccc3nc(COc4cccc(C(=O)O)c4)n(C)c3c2)n1"
  testedOn: "Peroxisome proliferator-activated receptor alpha (Homo sapiens)"
  categoryLabel: "True"
- compound: "Cn1c(COc2cccc(C(=O)O)c2)nc2ccc(Oc3ccc(F)cc3)nc21"
  testedOn: "Peroxisome proliferator-activated receptor alpha (Homo sapiens)"
  categoryLabel: "False"
- compound: "Cn1c(COc2cccc(C(=O)O)c2)nc2ccc(Oc3ccc(Cl)cn3)cc21"
  testedOn: "Peroxisome proliferator-activated receptor alpha (Homo sapiens)"
  categoryLabel: "True"
- compound: "Cc1cnc(Oc2ccc3nc(COc4cccc(C(=O)O)c4)n(C)c3c2)c(C)c1"
  testedOn: "Peroxisome proliferator-activated receptor alpha (Homo sapiens)"
  categoryLabel: "False"
- compound: "Cn1c(COc2cccc(C(=O)O)c2)nc2ccc(Oc3cc(Cl)ccn3)cc21"
  testedOn: "Peroxisome proliferator-activated receptor alpha (Homo sapiens)"
  categoryLabel: "False"
- compound: "Cn1c(COc2cccc(C(=O)O)c2)nc2ccc(Oc3ncc(Cl)cc3F)cc21"
  testedOn: "Peroxisome proliferator-activated receptor alpha (Homo sapiens)"
  categoryLabel: "True"
- compound: "Cn1c(COc2cccc(C(=O)O)c2)nc2ccc(Oc3ccc(F)cn3)cc21"
  testedOn: "Peroxisome proliferator-activated receptor alpha (Homo sapiens)"
  categoryLabel: "True"
- compound: "Cn1c(COc2cccc(C(=O)O)c2)nc2ccc(Oc3ccc4c(c3)OCC4)nc21"
  testedOn: "Peroxisome proliferator-activated receptor alpha (Homo sapiens)"
  categoryLabel: "False"
- compound: "Cn1c(COc2cccc(C(=O)O)c2)nc2cnc(Oc3ccc4c(c3)OCC4)cc21"
  testedOn: "Peroxisome proliferator-activated receptor alpha (Homo sapiens)"
  categoryLabel: "True"
- compound: "Cc1ccc(Oc2ccc3nc(COc4cccc(C(=O)O)c4)n(C)c3c2)nc1"
  testedOn: "Peroxisome proliferator-activated receptor alpha (Homo sapiens)"
  categoryLabel: "True"
- compound: "Cc1cnc(Oc2ccc3nc(COc4cccc(C(=O)O)c4)n(C)c3c2)c(F)c1"
  testedOn: "Peroxisome proliferator-activated receptor alpha (Homo sapiens)"
  categoryLabel: "True"
- compound: "Cn1c(COc2cccc(C(=O)O)c2)nc2ccc(Oc3ccccn3)cc21"
  testedOn: "Peroxisome proliferator-activated receptor alpha (Homo sapiens)"
  categoryLabel: "True"
- compound: "Cn1c(COc2cccc(C(=O)O)c2)nc2ccc(Oc3ccc4c(c3)CCC4)nc21"
  testedOn: "Peroxisome proliferator-activated receptor alpha (Homo sapiens)"
  categoryLabel: "False"
- compound: "Cn1c(COc2cccc(C(=O)O)c2)nc2ccc(Oc3ncc(Cl)cc3Cl)cc21"
  testedOn: "Peroxisome proliferator-activated receptor alpha (Homo sapiens)"
  categoryLabel: "True"
